Experiment: Cytotoxicity against mouse J774.A1 cells assessed as survival rate at 10 uM measured for 48 hrs by MTT assay relative to control
Reported viability at 48 h, 10 µM values for the following molecules.
Report the value in % with no unit label.

| Structure notation | Units of measure | viability at 48 h, 10 µM |
| --- | --- | --- |
| O=C(NCCc1cccs1)c1cc(Oc2ccc(NC(=O)c3cn(-c4ccc(Br)cc4F)c4ccccc4c3=O)cc2F)ccn1 | % | 97.1 |

Problem: # input molecule: "O=C(NCCCN1CCOCC1)c1cc(Oc2ccc(NC(=O)c3cn(-c4ccc(Cl)cc4)c4ccccc4c3=O)cc2F)ccn1" ; wanted: its viability at 48 h, 10 µM
Solution: 77.8

Problem: # input molecule: "O=C(NCCc1cccs1)c1cc(Oc2ccc(NC(=O)c3cn(-c4ccc(Cl)cc4)c4ccccc4c3=O)cc2)ccn1" ; wanted: its viability at 48 h, 10 µM
Solution: 86.2

Problem: # input molecule: "O=C(NCCCN1CCOCC1)c1cc(Oc2ccc(NC(=O)c3cn(-c4ccc(Br)cc4)c4ccccc4c3=O)cc2F)ccn1" ; wanted: its viability at 48 h, 10 µM
Solution: 91.3

====

Test: Cytotoxicity against mouse J774.A1 cells assessed as survival rate at 10 uM measured for 48 hrs by MTT assay relative to control
Reported viability at 48 h, 10 µM values for the following compounds.
Report the value in % with no unit label.

Look over these answered cases.
| Structure notation | Measurement |
| --- | --- |
| COc1ccc(-n2cc(C(=O)Nc3ccc(Oc4ccnc(C(=O)NCCCN5CCOCC5)c4)c(F)c3)c(=O)c3ccccc32)cc1 | 22.9 |
| O=C(NCCCN1CCOCC1)c1cc(Oc2ccc(NC(=O)c3cn(-c4ccc(F)cc4)c4ccccc4c3=O)cc2)ccn1 | 87.1 |
| O=C(NCCCN1CCOCC1)c1cc(Oc2ccc(NC(=O)c3cn(-c4ccc(Br)cc4F)c4ccccc4c3=O)cc2F)ccn1 | 90.7 |
| O=C(NCCc1cccs1)c1cc(Oc2ccc(NC(=O)c3cn(-c4ccccc4)c4ccccc4c3=O)cc2)ccn1 | 72 |

Problem: # input compound: "O=C(NCCCN1CCOCC1)c1cc(Oc2ccc(NC(=O)c3cn(-c4ccc(F)cc4)c4ccccc4c3=O)cc2F)ccn1" ; wanted: its viability at 48 h, 10 µM
Solution: 94.1

====

Reported viability at 48 h, 10 µM values for the following compounds.
Assay: Cytotoxicity against mouse J774.A1 cells assessed as survival rate at 10 uM measured for 48 hrs by MTT assay relative to control
Report the value in % with no unit label.

Look over these answered cases.
| Structure notation | Measure name | Units of measure | Measurement |
| --- | --- | --- | --- |
| O=C(NCCCN1CCOCC1)c1cc(Oc2ccc(NC(=O)c3cn(-c4ccc(Br)cc4F)c4ccccc4c3=O)cc2)ccn1 | viability at 48 h, 10 µM | % | 92.2 |
| O=C(NCCCN1CCOCC1)c1cc(Oc2ccc(NC(=O)c3cn(-c4ccccc4)c4ccccc4c3=O)cc2F)ccn1 | viability at 48 h, 10 µM | % | 83.2 |
| O=C(NCCc1cccs1)c1cc(Oc2ccc(NC(=O)c3cn(-c4ccc(Cl)cc4)c4ccccc4c3=O)cc2F)ccn1 | viability at 48 h, 10 µM | % | 7.46 |
| COc1ccc(-n2cc(C(=O)Nc3ccc(Oc4ccnc(C(=O)NCCc5cccs5)c4)c(F)c3)c(=O)c3ccccc32)cc1 | viability at 48 h, 10 µM | % | 85.3 |
| O=C(NCCc1cccs1)c1cc(Oc2ccc(NC(=O)c3cn(-c4ccc(F)c(Cl)c4)c4ccccc4c3=O)cc2F)ccn1 | viability at 48 h, 10 µM | % | 77.7 |
| O=C(NCCc1cccs1)c1cc(Oc2ccc(NC(=O)c3cn(-c4ccc(Br)cc4)c4ccccc4c3=O)cc2)ccn1 | viability at 48 h, 10 µM | % | 84.4 |

Problem: # input compound: "O=C(NCCCN1CCOCC1)c1cc(Oc2ccc(NC(=O)c3cn(-c4ccccc4)c4ccccc4c3=O)cc2)ccn1" ; wanted: its viability at 48 h, 10 µM
Solution: 82.7

Problem: # input compound: "COc1ccc(-n2cc(C(=O)Nc3ccc(Oc4ccnc(C(=O)NCCCN5CCOCC5)c4)cc3)c(=O)c3ccccc32)cc1" ; wanted: its viability at 48 h, 10 µM
Solution: 87

====

Reported viability at 48 h, 10 µM values for the following compounds.
Test: Cytotoxicity against mouse J774.A1 cells assessed as survival rate at 10 uM measured for 48 hrs by MTT assay relative to control
Report the value in % with no unit label.

Look over these answered cases.
| Compound | viability at 48 h, 10 µM, % |
| --- | --- |
| COc1ccc(-n2cc(C(=O)Nc3ccc(Oc4ccnc(C(=O)NCCc5cccs5)c4)cc3)c(=O)c3ccccc32)cc1 | 88.3 |
| COc1cc(/C=C/C(=O)CC(=O)/C=C/c2ccc(O)c(OC)c2)ccc1O [CURCUMIN] | 94.9 |
| O=C(NCCc1cccs1)c1cc(Oc2ccc(NC(=O)c3cn(-c4ccccc4)c4ccccc4c3=O)cc2F)ccn1 | 99.8 |

Problem: # input compound: "O=C(NCCc1cccs1)c1cc(Oc2ccc(NC(=O)c3cn(-c4ccc(Br)cc4)c4ccccc4c3=O)cc2F)ccn1" ; wanted: its viability at 48 h, 10 µM
Solution: 84.3

Problem: # input compound: "O=C(NCCc1cccs1)c1cc(Oc2ccc(NC(=O)c3cn(-c4ccc(Br)cc4F)c4ccccc4c3=O)cc2)ccn1" ; wanted: its viability at 48 h, 10 µM
Solution: 92.8

====

Assay: Cytotoxicity against mouse J774.A1 cells assessed as survival rate at 10 uM measured for 48 hrs by MTT assay relative to control
Measure name: viability at 48 h, 10 µM

| Structure notation | Measurement |
| --- | --- |
| O=C(NCCc1cccs1)c1cc(Oc2ccc(NC(=O)c3cn(-c4ccc(F)cc4)c4ccccc4c3=O)cc2F)ccn1 | > 100% |
| O=C(NCCCN1CCOCC1)c1cc(Oc2ccc(NC(=O)c3cn(-c4ccc(F)c(Cl)c4)c4ccccc4c3=O)cc2F)ccn1 | > 100% |

Problem: # input molecule: "O=C(NCCCN1CCOCC1)c1cc(Oc2ccc(NC(=O)c3cn(-c4ccc(Cl)cc4)c4ccccc4c3=O)cc2)ccn1" ; wanted: its viability at 48 h, 10 µM
Solution: > 100%
